# Lookup of reported peptide exchange yield keyed by entry
- MEASUREMENT_TARGET: HLA-A*24 (human)
- ASSAY_PROTOCOL: UV-exchange b2m ELISA

Some binders with known peptide exchange yield results, for comparison:
KYTSWYVAL | > 75%
IFPQFLYQF | > 75%
KFSSFSLFF | 50 to 75%
VYWDSAGAAHF | > 75%

*Q* peptide exchange yield lookup needed for AYTLIAPNI , thanks.
*A* 50 to 75%

*Q* Please answer likewise for YFIDSTNLKTHF
*A* 50 to 75%

*Q* Can you handle IFLDYEAGTLSF next?
*A* > 75%

*Q* Input IYKVGAPTI
*A* 50 to 75%

Values compiled from patent US20170165338A1.
